Tested on: CP325
Assay: qHTS profiling for inhibitors of Plasmodium falciparum proliferation (AID 504749); also: nearly all actives have a fitted effect of over 60% in size
Details: P. falciparum in erythrocytes, SYBR Green DNA, 72 h; series mostly up to 28.7 µM
Results filed as inconclusive are left out. The source made the active and inactive calls. Calls follow the shape of the dose curve; as a rule, active = well fitted inhibition curve with a large enough effect; inconclusive = small, poorly fitted or top-dose-only effect; inactive = flat fitted curve, though single readings scatter.
Your answer must be one of the following: Y for active, N for inactive

{"COMPOUND": "CC(C)Cc1ccc(C(C)C(=O)O)cc1 (stereo unspecified)", "CATEGORY": "N"}
{"COMPOUND": "CC12CC3CC(C)(C1)CC(N)(C3)C2", "CATEGORY": "N"}
{"COMPOUND": "O=C1N(c2ccccc2)c2ccccc2C1(Cc1ccncc1)Cc1ccncc1", "CATEGORY": "N"}

Please state the recorded outcome for this compound: CN(C)C(=N)N=C(N)N
N

Which outcome was entered for the compound CC(C)C(=O)Nc1ccc([N+](=O)[O-])c(C(F)(F)F)c1 in this test?
N

Outcome logged for Cn1c(=O)c2[nH]cnc2n(C)c1=O in this assay:
N

Just curious, what result did CN(C)CCCN1c2ccccc2CCc2ccc(Cl)cc21 get here?
N

Recorded call for Cn1cnc2c1c(=O)[nH]c(=O)n2C ?
N

Test call for this compound, please: COc1ccc(CCN(C)CCCC(C#N)(c2ccc(OC)c(OC)c2)C(C)C)cc1OC (stereo unspecified)
N

# fetch the recorded call for CCCNCC(O)COc1ccccc1C(=O)CCc1ccccc1 (stereo unspecified) here
Y

Query: recorded result category for NS(=O)(=O)c1cc2c(cc1Cl)NCNS2(=O)=O in this test
N

Dear all, I need the recorded test outcome for CS(=O)(=O)Nc1ccc([N+](=O)[O-])cc1Oc1ccccc1 , thank you.
N

What was the test verdict on COc1ccccc1OCC(O)CN1CCN(CC(=O)Nc2c(C)cccc2C)CC1 (stereo unspecified) ?
N

Short answer needed: outcome of this test for CCOC(=O)c1ncn2c1CN(C)C(=O)c1cc(F)ccc1-2 ?
N

Please share the test call associated with CN(C)CCC=C1c2ccccc2C=Cc2ccccc21 .
N

Tell me the recorded outcome of this test for NC(=O)OCC(COC(N)=O)c1ccccc1 .
N

What is the recorded call for this compound in the test? CC(C)NCC(O)c1ccc(O)c(O)c1 (stereo unspecified)
N

Kindly provide the recorded test outcome for the following compound: Cc1cc(C(C)(C)C)c(O)c(C)c1CC1=NCCN1
N

Test call, this compound: CCOC(=O)C(C)(C)Oc1ccc(Cl)cc1
N

Look up the recorded call for COc1nc(C)nc(Cl)c1NC1=NCCN1 in this test.
N

Short answer needed: outcome of this test for CC(CCc1ccc(O)cc1)NCCc1ccc(O)c(O)c1 (stereo unspecified) ?
N

###

Assay: Quantitative High-Throughput drug screen in 47 multiple myeloma cell lines against the NCATS MIPE library collection: NCIH929_DSMZ cell viability assay (AID 1918978); also: nearly all actives have a fitted effect of over 35% in size
Details: NCI-H929 myeloma viability, CellTiter-Glo ATP, 48 h; series mostly up to 45.8 µM
Records with an inconclusive call do not appear. The source made the active and inactive calls. Calls follow the shape of the dose curve; as a rule, active = well fitted cell-killing curve with a large enough effect; inconclusive = small, poorly fitted or top-dose-only effect; inactive = no such curve, though single readings can be large or run the other way.
Respond only with the outcome that fits, drawn from Y for active, N for inactive

// known answers, use as guide
{"MOLECULE": "NCCS(=O)(=O)O", "CATEGORY": "N"}
{"MOLECULE": "Cc1cc(C(C)(C)C)c(O)c(C)c1CC1=NCCN1", "CATEGORY": "N"}
{"MOLECULE": "COC(=O)Nc1nc2ccc(C(=O)c3cccs3)cc2[nH]1", "CATEGORY": "Y"}

Assay outcome for Nc1nnc(-c2cccc(Cl)c2Cl)c(N)n1 : what was it?
Y

Please share the test call associated with CC(C)C(=O)Nc1ccc([N+](=O)[O-])c(C(F)(F)F)c1 .
Y

Given NC(CO)C(=O)NNCc1ccc(O)c(O)c1O (configuration not stated) , state the outcome it received in this test.
N

What did this assay record as the result for CC1COc2c(N3CCN(C)CC3)c(F)cc3c(=O)c(C(=O)O)cn1c23 (configuration not stated) ?
N

What classification did Cc1cc(C(C)(C)C)cc(C)c1CC1=NCCN1 end up with in this test?
N

// outcome(item) with item = CCc1cccc2c3c([nH]c12)C(CC)(CC(=O)O)OCC3 (configuration not stated)
N

Just curious, what result did NS(=O)(=O)c1cc2c(cc1Cl)NCNS2(=O)=O get here?
N

Per the records of this test, what outcome belongs to O=C(Nc1ccc([N+](=O)[O-])cc1Cl)c1cc(Cl)ccc1O ?
Y

Identify the outcome logged in this assay for the molecule shown: CN(C)CCC=C1c2ccccc2C=Cc2ccccc21
N
